# System: ICR mice
# measurement description: Acute toxicity test
# Format: in vivo
# reported conditions: female, 54.9 mg/kg i.p.
observable: Number of dead mice for 7 days

Per the records, this compound ( CCC1(C)OC2C[NH2+][Pt-2]3([NH2+]CC2O1)[O]CC(=O)[O]3 (centres unmarked) [Example 9] ) has Number of dead mice for 7 days equal to 4/6

Sample CC1[O][Pt][O]C1=O.CCC1OC(CN)C(CN)O1 (centres unmarked) [Example 18] ; Number of dead mice for 7 days observed: 4/6

Number of dead mice for 7 days reported for this compound CC(C)C1OC(CN)C(CN)O1.CC1[O][Pt][O]C1=O (centres unmarked) [Example 19] : 4/6

Entry CC1[O][Pt][O]C1=O.NCC1OC2(CCCC2)OC1CN (centres unmarked) [Example 15] — recorded Number of dead mice for 7 days = 3/6

Consider CCC1(CC)OC2C[NH2+][Pt-2]3([NH2+]CC2O1)[O]CC(=O)[O]3 (centres unmarked) [Example 8] . Its measured Number of dead mice for 7 days is 3/6

----------
# System: ICR mice
# measurement description: Acute toxicity test
# Format: in vivo
# reported conditions: female, 270 mg/kg i.p.
observable: Number of dead mice, 3rd day

# Number of dead mice, 3rd day of O=C1[O][Pt-2]2([NH2+]CC3OC4(CCCC4)OC3C[NH2+]2)[O]C(=O)C12CCC2 (stereo not shown) [Example 30] = 2/2

Entry CC1OC2C[NH2+][Pt-2]3([NH2+]CC2O1)[O]C(=O)C1(CCC1)C(=O)[O]3 (stereo not shown) [Example 22] ; Number of dead mice, 3rd day = 2/2

Number of dead mice, 3rd day in this record for O=C1[O][Pt-2]2([NH2+]CC3OCOC3C[NH2+]2)[O]C(=O)C12CCC2 (stereo not shown) [Example 20] : 2/2

Value of measured Number of dead mice, 3rd day for the entry CCC1OC2C[NH2+][Pt-2]3([NH2+]CC2O1)[O]C(=O)C1(CCC1)C(=O)[O]3 (stereo not shown) [Example 24] : 1/5

----------
# Tested on: ICR mice
# measurement description: Acute toxicity test
# Format: in vivo
# reported conditions: female, 160 mg/kg i.p.
For each record, write down the corresponding Number of dead mice for 7 days.

# Number of dead mice for 7 days of CC1OC2C[NH2+][Pt-2]3([NH2+]CC2O1)[O]C(=O)C1(CCC1)C(=O)[O]3 (centres unmarked) = 3/6

Summary for this molecule, CC1(C)OC2C[NH2+][Pt-2]3([NH2+]CC2O1)[O]C(=O)C1(CCC1)C(=O)[O]3 (centres unmarked) : Number of dead mice for 7 days is 0/6

For CCC1OC2C[NH2+][Pt-2]3([NH2+]CC2O1)[O]C(=O)C1(CCC1)C(=O)[O]3 (centres unmarked) the molecule record lists Number of dead mice for 7 days as 0/6

Note to self: Number of dead mice for 7 days recorded for O=C1[O][Pt-2]2([NH2+]CC3OC4(CCCC4)OC3C[NH2+]2)[O]C(=O)C12CCC2 (centres unmarked) was 1/6

So, O=C1[O][Pt-2]2([NH2+]CC3OCOC3C[NH2+]2)[O]C(=O)C12CCC2 (centres unmarked) ? Its Number of dead mice for 7 days was 4/6

----------
# Tested on: ICR mice
# measurement description: Acute toxicity test
# Type: in vivo
# reported conditions: male, 208 mg/kg i.p.
Kindly state Number of dead mice for 7 days for each of the entries shown.

Number of dead mice for 7 days in this record for CCC1OC2C[NH2+][Pt-2]3([NH2+]CC2O1)[O]C(=O)C1(CCC1)C(=O)[O]3 (centres unmarked) [Example 24] : 1/6

So, O=C1[O][Pt-2]2([NH2+]CC3OCOC3C[NH2+]2)[O]C(=O)C12CCC2 (centres unmarked) [Example 20] ? Its Number of dead mice for 7 days was 6/6

get_value(item= O=C1[O][Pt-2]2([NH2+]CC3OC4(CCCC4)OC3C[NH2+]2)[O]C(=O)C12CCC2 (centres unmarked) [Example 30] , readout=Number of dead mice for 7 days) returns 5/6

Please fill in: Number of dead mice for 7 days reported for CC1(C)OC2C[NH2+][Pt-2]3([NH2+]CC2O1)[O]C(=O)C1(CCC1)C(=O)[O]3 (centres unmarked) [Example 26] = 1/6

Number of dead mice for 7 days in this record for CC1OC2C[NH2+][Pt-2]3([NH2+]CC2O1)[O]C(=O)C1(CCC1)C(=O)[O]3 (centres unmarked) [Example 22] : 5/6
